Recorded values, source patent US20230391772A1.

Below, each of the compounds is paired with its reported pIC50 value.
target entity: HSP90a protein (Homo sapiens)
Construct: purchased BPS Bioscience 50298
method summary: HSP90α-binding fluorescent polarization (FP) assay, BODIPY-labeled RNK04010 probe
protocol conditions: FP competition with RNK04010 (BODIPY-labeled), 5 nM, 300 min at 25° C.
pIC50: −log10 of the molar value.

Some compounds with known pIC50 results, for comparison:
C=CC(=O)N1CCN(c2nc(OCCN3CCC4(CC3)CCN(C(=O)C3CCN(Cc5ccc(-n6c(O)nnc6-c6cc(C(C)C)c(O)cc6O)cc5)CC3)CC4)nc3c2CCN(c2cccc4cccc(Cl)c24)C3)C[C@@H]1CC#N: > 7.00
CCC(=O)N1CCN(c2nc(NCCC(=O)NCc3ccc(-n4c(O)nnc4-c4cc(CC)c(O)cc4O)cc3C(F)(F)F)nc3c2CCN(c2cc(O)cc4ccccc24)C3)CC1: < 6.00

Given item "C=CC(=O)N1CCN(c2nc(OC[C@@H]3C[C@@H](OCC(=O)NCc4ccc(-n5c(O)nnc5-c5cc(C(C)C)c(O)cc5O)cc4)CN3C)nc3c2CCN(c2cccc4cccc(Cl)c24)C3)C[C@@H]1CC#N" , the value recorded as its pIC50 is > 7.00

Given item "C=CC(=O)N1CCN(c2nc(NCCC(=O)N3CCN(Cc4ccc5c(c4)CN(C(=O)c4cc(C(C)C)c(O)cc4O)C5)CC3)nc3c2CCN(c2cc(O)cc4ccccc24)C3)CC1" , the value recorded as its pIC50 is 6.00 to 7.00

Given item "CCC(=O)N1CCN(c2nc(NCCC(=O)NCCOc3ccc(-n4c(O)nnc4-c4cc(C(C)C)c(O)cc4O)cc3)nc3c2CCN(c2cc(O)cc4ccccc24)C3)CC1" , the value recorded as its pIC50 is 6.00 to 7.00
